Test system: MOLT-4 leukemia
Experiment: NCI tumour cell line growth inhibition, 48 h
Exercise: state measured TGI for each of the compounds provided.

Below, 3 compounds whose answers are already recorded.
{"COMPOUND": "O=C(NC12CC3CC(CC(C3)C1)C2)n1cnc2cncnc21", "RESULT": "> 100 µM"}
{"COMPOUND": "NC(=O)NC1=NCCC(=O)N1CCc1c[nH]c2ccccc12", "RESULT": "39.1 µM"}
{"COMPOUND": "COc1ncn(C2C=C(CO)C(O)C2O)c(=O)n1 (centres undefined)", "RESULT": "> 100 µM"}

Batch request: TGI per item, same order as input.
1. NNC(=S)N/N=C(\c1nc2ccc(Cl)cc2[nH]c1=O)C(O)c1ccc(Cl)cc1Cl (centres undefined)
2. CCSc1sc(-c2ccc(C)cc2)nc1[P+](c1ccccc1)(c1ccccc1)c1ccccc1
3. CCOC(=O)C(C(N)=O)c1nc2cc([N+](=O)[O-])ccc2nc1/C=C(\O)c1ccc(C)cc1 (centres undefined)
4. CCOC(=O)n1c2ccccc2c2c(O)c(OC)c3c(c21)C(=O)NC3=O
5. C/C(=C/CC[C@](C)(OC1OC(CO)C(O)C(O)C1OC1OC(C)C(O)C(O)C1O)[C@H]1CC[C@]2(C)[C@@H]1CC[C@@H]1[C@@]3(C)CC[C@H](O)C(C)(C)[C@@H]3C[C@H](O)[C@]12C)CO (some centres undefined)
6. N#CC1=C(N)Oc2c(sc3c(F)cccc23)C1c1ccc(Cl)cc1 (centres undefined)
7. O=C(O)C(C1NCCS1)N1Cc2ccccc2C1 (centres undefined)

["> 100 µM", "1.87 µM", "1.39 µM", "> 100 µM", "> 100 µM", "10.5 µM", "> 100 µM"]

Batch request: TGI per item, same order as input.
1. COC(CO[Si](C)(C)N[Si](C)(C)OCC(OC)c1ccccc1)c1ccccc1 (centres undefined)
2. O=C(O)c1cc(/C=C/c2ccc(O)c(O)c2)ccc1O

> 100 µM
> 100 µM

Batch request: TGI per item, same order as input.
1. CC(C)(C)NC(=O)C12C3C4C1C1C2C3C41I (centres undefined)
2. Nc1nc(-c2ccccc2)cc(-c2ccc(F)cc2)c1-c1ccc(Cl)cc1

1. > 100 µM
2. > 100 µM

---

Tested on: HCT-15 colon
Test: NCI tumour cell line growth inhibition, 48 h
Exercise: state measured TGI for each of the compounds provided.

Below, 8 compounds whose answers are already recorded.
{"COMPOUND": "CSCC[C@@H](NC(=O)[C@H](CC(C)C)NC(=O)C(Cc1cnc[nH]1)NC(=O)CNC(=O)[C@@H](NC(=O)[C@H](C)NC(=O)[C@H](Cc1cn(C=O)c2ccccc12)NC(=O)[C@H](CCC(N)=O)NC(=O)[C@@H](N)CC(N)=O)C(C)C)C(N)=O (some centres undefined)", "TARGET_OR_SYSTEM": "HCT-15 colon", "TGI": "> 100 µM"}
{"COMPOUND": "CC(C)=CCC[C@@H](C)c1c(O)c(O)c(C)c2nc3ccccc3nc12", "TARGET_OR_SYSTEM": "HCT-15 colon", "TGI": "15 µM"}
{"COMPOUND": "O=C(O)/C=C/C(=O)Nc1cccc2c1-c1ccccc1C2=O", "TARGET_OR_SYSTEM": "HCT-15 colon", "TGI": "> 100 µM"}
{"COMPOUND": "COC(=O)[C@@]12CC3CN(Cc4c1[nH]c1ccccc41)C2CC3=O", "TARGET_OR_SYSTEM": "HCT-15 colon", "TGI": "> 100 µM"}
{"COMPOUND": "NCCCCN(CCCN)C(=O)OCc1ccccc1", "TARGET_OR_SYSTEM": "HCT-15 colon", "TGI": "> 100 µM"}
{"COMPOUND": "Nc1nc(Cl)cc2c1ncn2C1OC(CO)C(O)C1O (centres undefined)", "TARGET_OR_SYSTEM": "HCT-15 colon", "TGI": "> 100 µM"}
{"COMPOUND": "C=CC[n+]1c(/C=C2\\Sc3ccccc3N2C)sc(-c2ccccc2)c1-c1ccccc1", "TARGET_OR_SYSTEM": "HCT-15 colon", "TGI": "13.4 µM"}
{"COMPOUND": "COc1cc(Oc2cnc3cc(N)cc(N)c3n2)cc(OC)c1OC", "TARGET_OR_SYSTEM": "HCT-15 colon", "TGI": "> 100 µM"}

# evaluate next
Record Cc1cc([C@H](C#N)c2nc3ccccc3s2)nc(Cl)n1 . Reported TGI: 16.3 µM

---

System: 786-0 renal
Test: NCI tumour cell line growth inhibition, 48 h
READOUT_LABEL: TGI (µM)
Answers are plain numbers, in µM.

Below, 2 compounds whose answers are already recorded.
{"COMPOUND": "COc1ccc(CNCCN2C(=O)c3ccc4c5c(ccc(c35)C2=O)C(=O)N(CCNCc2ccc(OC)cc2)C4=O)cc1", "TARGET_OR_SYSTEM": "786-0 renal", "TGI, µM": 2.49}
{"COMPOUND": "O=C(NCCc1ccc(F)cc1)c1cc(/C=C/c2cc(O)ccc2O)ccc1O", "TARGET_OR_SYSTEM": "786-0 renal", "TGI, µM": 5.03}

Batch request: TGI per item, same order as input.
1. CC(=O)O/N=C1\C=Cc2c(no[n+]2[O-])C1=O
2. O=C(/C=C/c1ccccc1O)CC(=O)/C=C/c1ccccc1O
3. CCCCOP(=O)(OCCCC)C(NS(=O)(=O)c1ccccc1)(C(=O)OCC)C(F)(F)F (centres undefined)

1. 33.5
2. 16.1
3. 88.1

---

System: UO-31 renal
Assay: NCI tumour cell line growth inhibition, 48 h
READOUT_LABEL: TGI

Below, 5 compounds whose answers are already recorded.
{"COMPOUND": "Nc1ncnc2c1ncn2C1OC(CO)C(O)C1O (stereo unspecified)", "TGI": "> 450 µM"}
{"COMPOUND": "O=C(NCCc1ccccc1)C(c1csc2ccccc12)N(C(=O)CCl)c1ccc(-c2cnco2)cc1 (stereo unspecified)", "TGI": "0.0354 µM"}
{"COMPOUND": "O=C1CCCn2c3ccccc3c3ccnc1c32", "TGI": "> 100 µM"}
{"COMPOUND": "C(=C/c1ccc2nc(-c3ccc(/C=C/C=N/NC4=NCCCN4)cc3)cn2c1)/C=N/NC1=NCCCN1", "TGI": "> 100 µM"}
{"COMPOUND": "CN(CCN(C)Cc1ccc(Cl)c(Cl)c1)CCN1CCCC1", "TGI": "36 µM"}

# evaluate next
// compound Cc1cccc2c1NC(c1c(C)[nH]c3ccccc13)C2 (stereo unspecified) , assay UO-31 renal, TGI value: > 100 µM

---

Exercise: state measured TGI for each of the compounds provided.
Test system: CAKI-1 renal
Experiment: NCI tumour cell line growth inhibition, 48 h

Below, 4 compounds whose answers are already recorded.
{"COMPOUND": "N#CCCN(CCN(CCN(C(=O)Nc1ccccc1)c1ccccc1)C(=O)Nc1ccccc1)C(=O)Nc1ccccc1", "TARGET_OR_SYSTEM": "CAKI-1 renal", "TGI": "> 100 µM"}
{"COMPOUND": "Cn1c(=O)c(C2c3ccccc3Oc3c2c(=O)n(C)c2ccccc32)c(O)c2ccccc21 (stereo not given)", "TARGET_OR_SYSTEM": "CAKI-1 renal", "TGI": "> 100 µM"}
{"COMPOUND": "Cc1cc(C)cc(NC(=O)CCC(=O)C2CCC/C2=N\\NC(=O)C(=O)NN)c1 (stereo not given)", "TARGET_OR_SYSTEM": "CAKI-1 renal", "TGI": "> 100 µM"}
{"COMPOUND": "C=CCn1c(-c2ccc(N=NNc3ccc(-c4n[nH]c(=S)n4CC=C)cc3)cc2)n[nH]c1=S", "TARGET_OR_SYSTEM": "CAKI-1 renal", "TGI": "19.1 µM"}

# evaluate next
// compound O=C(O)CC(Cc1ccccc1)C(=O)O (stereo not given) , assay CAKI-1 renal, TGI value: > 100 µM

---

System: NCI/ADR-RES ovarian
Experiment: NCI tumour cell line growth inhibition, 48 h
READOUT_LABEL: GI50

Below, 5 compounds whose answers are already recorded.
{"COMPOUND": "CC([C@H]1CCC2C3CCC4C(=O)C(NC=O)=CC[C@]4(C)C3CC[C@@]21C)N(C)C (stereo partly drawn)", "GI50": "6.8 µM"}
{"COMPOUND": "C=C1c2c(C)nn(-c3ccccc3)c2N(C)C23C[C@@H]1C1(C)c4c(C)nn(-c5ccccc5)c4N(C)C(C)(C[C@H]12)C3 (stereo partly drawn)", "GI50": "6.04 µM"}
{"COMPOUND": "CCCCCCCC(=O)SCC/C=C/[C@@H]1CC(=O)NCc2cccc(n2)CN(Cc2ccc(Cl)cc2)CC(=O)N[C@@H](C(C)C)C(=O)O1", "GI50": "11.4 µM"}
{"COMPOUND": "O=c1cc(N2CCOCC2)oc2c(-c3ccccc3)cccc12", "GI50": "6.35 µM"}
{"COMPOUND": "COc1cc(Oc2cnc3cc(N)cc(N)c3n2)cc(OC)c1OC", "GI50": "30.6 µM"}

Batch request: GI50 per item, same order as input.
1. COc1ccc(OC)c(-c2cc(-c3ccc(Cl)cc3)nn2-c2ccc(S(N)(=O)=O)cc2)c1
2. COC(=O)C1=C(O)C(C(=O)OC)[C@@]2(O)[C@@H](C(=O)OC)C(c3ccc(OC(=O)C(Cc4ccccc4)NC(C)=O)cc3)C[C@@H]1[C@@H]2C(=O)OC (stereo partly drawn)
3. CN1CCN(c2nc(NCCNc3ccnc4cc(Cl)ccc34)c3ccccc3n2)CC1

6.54 µM
60.7 µM
16 µM
